Value source: patent US7074789B2

Target: c-Met (Homo sapiens)
Construct: Kinases are expressed as either kinase domains or full length constructs; made in house
Sequence (P08581 25-1390): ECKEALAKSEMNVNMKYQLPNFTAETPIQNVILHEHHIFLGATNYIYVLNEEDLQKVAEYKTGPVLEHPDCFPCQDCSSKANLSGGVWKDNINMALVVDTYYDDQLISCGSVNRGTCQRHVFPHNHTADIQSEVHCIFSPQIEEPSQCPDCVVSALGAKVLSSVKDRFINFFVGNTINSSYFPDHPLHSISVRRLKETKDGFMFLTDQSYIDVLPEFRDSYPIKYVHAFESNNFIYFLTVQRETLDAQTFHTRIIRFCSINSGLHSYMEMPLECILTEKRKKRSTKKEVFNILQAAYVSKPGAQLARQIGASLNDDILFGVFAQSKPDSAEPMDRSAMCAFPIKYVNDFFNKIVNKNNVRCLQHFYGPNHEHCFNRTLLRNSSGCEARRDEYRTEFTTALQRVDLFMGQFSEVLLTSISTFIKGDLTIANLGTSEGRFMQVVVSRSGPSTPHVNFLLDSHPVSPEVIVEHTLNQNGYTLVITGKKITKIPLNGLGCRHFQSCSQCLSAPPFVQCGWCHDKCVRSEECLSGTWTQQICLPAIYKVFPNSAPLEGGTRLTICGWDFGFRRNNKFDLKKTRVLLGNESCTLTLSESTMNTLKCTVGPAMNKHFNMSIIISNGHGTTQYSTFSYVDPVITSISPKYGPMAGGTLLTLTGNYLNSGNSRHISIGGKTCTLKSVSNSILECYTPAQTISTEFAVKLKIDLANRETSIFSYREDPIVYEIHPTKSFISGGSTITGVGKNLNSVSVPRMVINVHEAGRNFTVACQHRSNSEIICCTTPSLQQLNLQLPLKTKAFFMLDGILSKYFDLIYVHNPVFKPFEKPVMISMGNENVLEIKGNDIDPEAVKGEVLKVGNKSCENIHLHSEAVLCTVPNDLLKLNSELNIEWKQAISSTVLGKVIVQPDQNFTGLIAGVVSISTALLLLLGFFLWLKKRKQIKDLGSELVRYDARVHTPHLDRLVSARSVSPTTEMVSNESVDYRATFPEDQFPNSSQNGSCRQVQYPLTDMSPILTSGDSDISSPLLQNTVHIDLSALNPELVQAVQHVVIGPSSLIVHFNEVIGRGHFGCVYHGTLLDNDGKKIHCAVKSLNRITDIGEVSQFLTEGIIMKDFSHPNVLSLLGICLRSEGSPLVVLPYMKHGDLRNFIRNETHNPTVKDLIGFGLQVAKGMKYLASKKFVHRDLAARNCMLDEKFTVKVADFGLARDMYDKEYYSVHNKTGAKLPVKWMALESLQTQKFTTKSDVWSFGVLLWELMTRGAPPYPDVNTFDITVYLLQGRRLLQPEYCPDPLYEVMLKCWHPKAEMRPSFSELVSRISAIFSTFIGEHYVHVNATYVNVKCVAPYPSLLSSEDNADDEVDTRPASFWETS
Assay: Kinase inhibition assay (33P transfer), c-Met
Type: biochemical
Details: Table 2, kinase inhibition class; read-out: Met-1
pIC50: −log10 of the molar value.
Measurement kind: pIC50

Sample records with pIC50:
>>> reported_result("COc1cc(C)c(Nc2ncnc(Nc3cc(-c4ccco4)n[nH]3)n2)cc1OC")
"5.21 to 5.99"
>>> reported_result("CCOC(=O)Cc1cn(-c2ncnc(Nc3cc(OC)c(OC)c(OC)c3)n2)c2ccccc12")
"> 6.06"

Problem: Which pIC50 is listed for `Nc1nc2ccccc2n1-c1ncnc(Nc2ccc(OC(F)(F)F)cc2)n1` ?
Result: < 4.93

Problem: For `COc1cc(Nc2ncnc(-n3c(NCc4ncc[nH]4)nc4ccccc43)n2)cc(OC)c1OC` , what is its reported pIC50?
Result: < 5.02

Problem: What does the record list as pIC50 for `COc1cc(Nc2ncnc(Nc3ccncc3)n2)cc(OC)c1OC` ?
Result: < 4.90

Problem: Could you share which pIC50 value was measured for `COc1cc(Nc2ncnc(-n3c(NCc4ccc(Cl)cc4C)nc4ccccc43)n2)cc(OC)c1OC` ?
Result: < 5.07

Problem: Entry under review: `COc1cc(Nc2ncnc(Nc3ccc4c(ccn4Cc4ccccc4)c3)n2)cc(OC)c1OC` . Reported pIC50?
Result: 5.14 to 5.30

Problem: Which pIC50 value belongs to `NCc1ccc(Nc2ncnc(Nc3cc(-c4ccco4)n[nH]3)n2)cc1` ?
Result: 5.16 to 5.94

Problem: Look at this molecule and give its reported pIC50. `COCCOc1ccc(Nc2ncnc(Nc3ccc(C)c(O)c3)n2)cc1OCCOC`
Result: < 4.99

Problem: What value of measured pIC50 is listed for `CCOc1cccc(Nc2ncnc(Nc3ccc(OC)c(OC)c3)n2)c1` ?
Result: < 4.91

Problem: Consider the molecule `COc1cc(Nc2ncnc(-n3cccc3)n2)cc(OC)c1OC` and give its measured pIC50.
Result: 4.86 to 4.97

Problem: Which pIC50 reading was recorded for the molecule `O=c1[nH]c2ccccc2n1-c1ncnc(Nc2ccccc2Cl)n1` ?
Result: 4.99 to 5.15

Problem: I would be grateful if you could share the reported pIC50 for `NC(=O)c1ccc(Nc2ncnc(-n3c(N)nc4ccccc43)n2)cc1` .
Result: 5.16 to 5.94

Problem: Form field: reported pIC50 of `Nc1nc2ccccc2n1-c1ncnc(Nc2ccc(Cl)c(Cl)c2)n1`
Result: 5.19 to 5.97
